Measured NanoBRET Abs IC50, listed per entry.
Study system: T1, B-cat-Halo (UniProt P35222 1-781)
T1 sequence (looked up): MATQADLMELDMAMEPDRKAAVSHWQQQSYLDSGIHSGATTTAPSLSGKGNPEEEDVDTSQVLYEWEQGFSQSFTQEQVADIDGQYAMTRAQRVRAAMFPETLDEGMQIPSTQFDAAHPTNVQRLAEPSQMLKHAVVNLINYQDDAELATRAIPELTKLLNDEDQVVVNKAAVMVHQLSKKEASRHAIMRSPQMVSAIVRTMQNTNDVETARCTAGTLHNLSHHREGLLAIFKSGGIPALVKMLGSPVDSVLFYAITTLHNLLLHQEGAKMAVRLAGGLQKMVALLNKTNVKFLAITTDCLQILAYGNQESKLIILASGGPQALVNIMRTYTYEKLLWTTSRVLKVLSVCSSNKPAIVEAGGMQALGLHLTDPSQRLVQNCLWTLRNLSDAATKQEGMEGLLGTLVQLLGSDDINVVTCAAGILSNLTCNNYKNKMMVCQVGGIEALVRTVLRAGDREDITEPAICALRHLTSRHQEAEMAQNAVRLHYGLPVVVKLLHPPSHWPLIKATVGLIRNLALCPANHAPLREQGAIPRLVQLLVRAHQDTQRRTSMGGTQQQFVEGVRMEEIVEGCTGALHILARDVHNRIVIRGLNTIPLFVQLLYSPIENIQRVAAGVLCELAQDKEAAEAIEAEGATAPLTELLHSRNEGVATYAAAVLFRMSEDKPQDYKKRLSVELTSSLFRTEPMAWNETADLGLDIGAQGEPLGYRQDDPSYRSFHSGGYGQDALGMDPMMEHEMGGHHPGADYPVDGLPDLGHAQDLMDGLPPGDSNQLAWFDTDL
Experiment: cell-based or functional assay
Starred links: 1 amine or outer side, 2 acyl side, 3 side chain; linkers in the order of their positions; H or OH if unused. Positions of bridges follow the written chain, without caps; N, C: chain ends. Non-standard residues stand in square brackets, D forms with d. Primed or numbered codes have the meaning given here. PyrS2″ = (S)-3-amino-1-((pent-4-en-1-yloxy)carbonyl)pyrrolidine-3-carboxylic acid (stapling residue), C=CCCCOC(=O)N1CC[C@@](N[*:1])(C(=O)[*:2])C1; B5(32) = 2-amino-2-(pent-4-en-1-yl)hept-6-enoic acid (bis-4-pentenylglycine, two alkene side chains), C=CCCCC(CCCC=C)(N[*:1])C(=O)[*:2]; B5(4) = 2,2-bis(4-pentenyl)glycine = 2-amino-2-(pent-4-en-1-yl)hept-6-enoic acid (stitching residue), C=CCCCC(CCCC=C)(N[*:1])C(=O)[*:2]; PyrS2 = (S)-3-amino-1-((pent-4-en-1-yloxy)carbonyl)pyrrolidine-3-carboxylic acid, C=CCCCOC(=O)N1CC[C@@](N[*:1])(C(=O)[*:2])C1; B5(3) = 2,2-bis(4-pentenyl)glycine (stitching residue), C=CCCCC(CCCC=C)(N[*:1])C(=O)[*:2]; Phe(3-COOH) = N[C@@H](Cc1cccc(C(=O)O)c1)C(=O)O; Phe(3,4-Me2) = Cc1ccc(C[C@H](N)C(=O)O)cc1C; Bta = N[C@@H](Cc1csc2ccccc12)C(=O)O; αAllylPro = C=CC[C@@]1(C(=O)O)CCCN1; tBuAla = CC(C)(C)C[C@H](N)C(=O)O; 3Thi = N[C@@H](Cc1ccsc1)C(=O)O

Binder | Output unit | NanoBRET Abs IC50
Ac-[αAllylPro]D[tBuAla][B5(32)]D[Phe(3-COOH)]AAFL[PyrS2][3Thi][Bta]NALL-NH2 (staple 1-4, 4-11; also: later eluting staple isomer) [I-2278] | µM | 2.8
Ac-[αAllylPro]D[tBuAla][B5(3)]D[Phe(3-COOH)]AAFL[PyrS2″][3Thi][Bta]NAAAAAAA-NH2 (staple 1-4, 4-11) [I-2269] | µM | 2.3
Ac-[αAllylPro]D[tBuAla][B5(4)]D[Phe(3-COOH)]AAFL[PyrS2][3Thi][Bta]NALALA-NH2 (staple 1-4, 4-11; also: later eluting staple isomer) [I-2282] | µM | 3.7
Ac-[αAllylPro]D[tBuAla][B5(4)]D[Phe(3-COOH)]AAFL[PyrS2][3Thi][Phe(3,4-Me2)]Q-NH2 (staple 1-4, 4-11) [I-2291] | µM | 4.9
